# key: entry, value: IC50
ASSAYED TARGET: RORγ ligand binding domain (LBD) (Homo sapiens, UniProt P51449)
Construct: made in house; host or cells: E. coli BL-21 (BL3), vector pDEST15
Sequence (P51449 269-508 limits assumed): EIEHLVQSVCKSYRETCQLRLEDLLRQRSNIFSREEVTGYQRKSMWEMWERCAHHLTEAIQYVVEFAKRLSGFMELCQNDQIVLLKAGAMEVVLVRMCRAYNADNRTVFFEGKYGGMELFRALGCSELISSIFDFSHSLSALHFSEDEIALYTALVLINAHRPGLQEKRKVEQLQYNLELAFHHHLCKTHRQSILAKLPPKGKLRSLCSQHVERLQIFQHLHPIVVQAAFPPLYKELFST
ASSAY PROCEDURE: TR-FRET Activity Assay (ligand sensing, RORγ-LBD / coactivator peptide interaction, LANCE)
Assay type: biochemical
CONDITION DETAILS: first value of the cell FRET/FF/REN; TR-FRET activity assay; read-out: pIC50 (FRET) (converted)

{"MOLECULE": "Cc1c(C(=O)N[C@H]2C[C@H](C(=O)O)C2)cc(-c2cc(C(C)(C)C)nc(C3(C)CC3)c2)n1CC1CCCCC1 [17/292]", "IC50, nM": 1260}
{"MOLECULE": "Cc1c(C(=O)NCCC(C)(C)C(=O)O)cc(-c2ccc(-c3ccnn3C(C)C)c(C(C)(C)C)c2)n1CC1CCCCC1 [26/6]", "IC50, nM": 398}
{"MOLECULE": "Cc1c(C(=O)N2CC3(CCOCC3)C2)cc(-c2ccc(S(=O)(=O)NC(C)(C)C)c(C(F)(F)F)c2)n1CC1CCCCC1 [17/211]", "IC50, nM": 501}
{"MOLECULE": "Cc1c(C(=O)N2CC3(CCOCC3)C2)cc(-c2ccc(S(=O)(=O)NC(C)(C)C)c3ccccc23)n1CC1CCCCC1 [17/266]", "IC50, nM": 251}
{"MOLECULE": "Cc1c(C(=O)N[C@H]2C[C@H](C(=O)O)C2)cc(-c2cc(C(=O)NC(C)(C)C)cc(C3(C)CC3)c2)n1CC1CCCCC1 [17/339]", "IC50, nM": 1260}
{"MOLECULE": "Cc1c(C(=O)NCC2(C(=O)O)CCOCC2)cc(-c2cc(C(C)(C)C)cc(C3(C)CC3)c2)n1CC1CCCCC1 [17/61]", "IC50, nM": 1000}
{"MOLECULE": "Cc1c(C(N)=O)cc(-c2ccc(S(=O)(=O)NC(C)(C)C)c(C(C)(C)C)c2)n1CC1CCCCC1 [1/13]", "IC50, nM": 1260}
